Data credit: patent US3969368A

Exercise: for every item that follows, state its recorded selectivity ratio.
# Experiment description: Anti-arrythmic activity in the rat (CaCl2 arrythmia)
# Condition label: rat, in vivo
Answers are plain numbers.

{"columns": ["Molecule", "selectivity ratio"],
 "data": [
  ["CCN(CC)CCNC(=O)C(C)C1(C)Oc2ccccc2O1 (stereo not shown)", 39.7]
]}

For every item in the list below, what is its measured selectivity ratio?
1. C=C[C@H]1C[N@@]2CC[C@H]1C[C@@H]2[C@@H](O)c1ccnc2ccc(OC)cc12 [Quinidine, reference compound]
2. CCN(CC)CCOCCOC(=O)CC1(C)Oc2ccccc2O1
3. CCN(CC)CCNC(=O)CC1(C)Oc2ccc(C)cc2O1 (stereo not shown)
4. CCN(CC)CCNC(=O)C1CCCCC12Oc1ccccc1O2 (stereo not shown)
5. CCN(CC)CCNC(=O)CC1(C)Oc2ccccc2O1

1. 31.3
2. 424
3. 31.3
4. 46.9
5. 136

* * *

# Experiment description: in vivo
# Condition label: rat, ip
Exercise: for every item that follows, state its recorded selectivity ratio.
Give bare numbers.

For every item in the list below, what is its measured selectivity ratio?
1. CCN(CC)CCOC(=O)CC1(C)Oc2ccccc2O1.O=C(O)CC(O)(CC(=O)O)C(=O)O [LR 292, citrate]
2. O=C(CC1(c2ccccc2)Oc2ccccc2O1)NO
3. CCN(CC)CCNC(=O)CCC1(C)Oc2ccccc2O1
4. CCN(CC)CCNC(=O)CC1(C)Oc2ccccc2O1
5. CC1(CC(=O)NCc2ccccc2)Oc2ccccc2O1

1: 6.7; 2: 3; 3: 3; 4: 9.8; 5: 5

* * *

# System: NH3 aerosol
# Experiment description: Anti-tussive activity in the rat (NH3 aerosol)
# Condition label: Rattus norvegicus, ip, read-out: Anti-tussive activity (NH3 aerosol) ED50
Where a name gives a salt, the structure may show the parent alone.
Exercise: for every item that follows, state its recorded ED50.
Give bare numbers, in mg/kg.

Example compounds with recorded ED50:
{"columns": ["Compound", "ED50 [mg/kg]"],
 "data": [
  ["CC1(CC(=O)OCCN2CCOCC2)Oc2ccccc2O1 [LR 296]", 86],
  ["CC(C)(C)NC(=O)CC1(c2ccccc2)Oc2ccccc2O1 [LR 347]", 115],
  ["NC(=O)CC1(c2ccccc2)Oc2ccccc2O1 [LR 310, (2-phenyl-1,3-benzodioxol-2-yl)acetamide]", 88],
  ["COc1ccc2c3c1O[C@H]1C(=O)CC[C@H]4[C@@H](C2)N(C)CC[C@]314 [Dihydrocodeinone, reference compound]", 4]
]}

For every item in the list below, what is its measured ED50?
1. O=C(CC1(c2ccccc2)Oc2ccccc2O1)OCCN1CCOCC1 [LR 295]
2. CC1(CC(=O)O)Oc2ccccc2O1 [LR 273]
3. O=C(O)CC1(c2ccccc2)Oc2ccccc2O1 [LR 272]
4. CCN(CC)CCOCCOC(=O)CC1(C)Oc2ccccc2O1 [LR 293]
5. CCN(CC)CCNC(=O)CC1(c2ccccc2)Oc2ccccc2O1 [LR 289, hydrochloride]

64
15
33
67
14

* * *

# Experiment description: Anti-tussive activity in the rat (NH3 aerosol)
# Condition label: rat, in vivo, ip
Structures can show the parent of a compound that is named as a salt.
Exercise: for every item that follows, state its recorded selectivity ratio.
One number for each entry.

Example compounds with recorded selectivity ratio:
{"columns": ["Compound", "selectivity ratio"],
 "data": [
  ["CCN(CC)CCNC(=O)CC1(c2ccccc2)Oc2ccccc2O1 [LR 289, hydrochloride]", 6.4],
  ["CCN(CC)CCOCCOC(=O)CC1(C)Oc2ccccc2O1", 10.7],
  ["O=C(CC1(c2ccccc2)Oc2ccccc2O1)OCCN1CCOCC1", 7.7],
  ["COc1ccc2c3c1O[C@H]1C(=O)CC[C@H]4[C@@H](C2)N(C)CC[C@]314 [Dihydrocodeinone, reference compound]", 25],
  ["O=C(O)CC1(c2ccccc2)Oc2ccccc2O1", 7.6],
  ["NC(=O)CC1(c2ccccc2)Oc2ccccc2O1 [LR 310, (2-phenyl-1,3-benzodioxol-2-yl)acetamide]", 10.7]
]}

Note: attention shifts to another entry.
# selectivity ratio (compound: `CC1(CC(=O)O)Oc2ccccc2O1` ) is 15.7
